Where do the numbers come from? From patent US6737383B1.

Tested on: blackgrass
Assay: Test B pre/postemergence blackgrass
Assay type: in vivo, Alopecurus myosuroides
Conditions: Preemergence, Rate 500 g/ha; scale 0 (no effect) to 10 (complete control)
Sorting guide: entries reporting Blackgrass plant response rating beneath 4 go in the Condition met pile, the rest go in the Condition not met pile.

# structure, class-assignment
measured = [
    ("Cc1cccc(Cl)c1-n1c(=O)on(C(=O)N(c2ccc(Cl)cc2)C(C)C)c1=O", "Condition met"),
    ("Cc1ccccc1Cn1c(=O)on(C(=O)N(c2ccc(F)cc2F)C(C)C)c1=O", "Condition not met"),
    ("COc1cccc(C)c1-n1c(=O)on(C(=O)N(c2ccc(F)cc2F)C(C)C)c1=O", "Condition met"),
]

Take the compound `Cc1ccccc1-n1c(=O)on(C(=O)N(c2ccc(C(F)(F)F)cc2)C(C)C)c1=O` and say whether its Blackgrass plant response rating is less than 4.
Condition met

Lab note: Blackgrass plant response rating threshold 4. Does this compound come in strictly under it? `CCCn1c(=O)on(C(=O)N(c2ccc(F)cc2)C(C)C)c1=O`
Condition not met

Regarding `Cc1ccccc1-n1c(=O)on(C(=O)N(c2ccc([N+](=O)[O-])cc2)C(C)C)c1=O` , kindly confirm whether its Blackgrass plant response rating is beneath 4.
Condition met

Take the compound `Cc1nn(C)c(Cl)c1-n1c(=O)on(C(=O)N(c2ccc(F)cc2F)C(C)C)c1=O` and say whether its Blackgrass plant response rating is less than 4.
Condition not met

Problem: For the compound `Cc1cc(C)c(-n2c(=O)on(C(=O)N(c3ccc(F)cc3)C(C)C)c2=O)c(C)c1` , is Blackgrass plant response rating under 4?
Condition met

----------
# key: entry, value: Soybean plant response rating (0 to 10 scale)
Tested on: soybean
Test: Test B pre/postemergence soybean
Assay type: in vivo, Glycine max
Conditions: Preemergence, Rate 125 g/ha; 0 is no effect, 10 is complete control
When you answer, write just the number.

# count of solved cases: 3
# structure, test-result
records = [
    ("CC(C)c1noc(C(C)C)c1-n1c(=O)on(C(=O)N(c2ccc(F)cc2)C(C)C)c1=O", 0),
    ("Cc1ccccc1-n1c(=O)on(C(=O)N(c2ccc(Br)cc2)C(C)C)c1=O", 0),
    ("CC(C)N(C(=O)n1oc(=O)n(-c2ccnn2C)c1=O)c1ccc(F)cc1", 0),
]

--- query ---
Which Soybean plant response rating (0 to 10 scale) is reported for this molecule? `CC(C)N(C(=O)n1oc(=O)n(C(C)C)c1=O)c1ccc(F)cc1`
3

----------
Tested on: wild oat
Assay: Test B pre/postemergence wild oat
Assay type: in vivo, Avena fatua
Conditions: Preemergence, Rate 500 g/ha; scale of 0 to 10 where 0 is no effect and 10 is complete control
The compounds listed here are annotated with their Plant response rating, Wild oats.
Format: numeric value only, no unit, no commentary.

Look over these answered cases.
# compound, assay-system, test-result
measured = [
    ("C#CCn1c(=O)on(C(=O)N(c2ccc(F)cc2)C(C)C)c1=O [Compound 212]", "wild oat", 7),
    ("CC[C@H](C)n1c(=O)on(C(=O)N(c2ccc(Cl)cc2)C(C)C)c1=O [Compound 664]", "wild oat", 7),
    ("C#CC(C)n1c(=O)on(C(=O)N(c2ccc(F)cc2F)C(C)C)c1=O (racemic) [Compound 657]", "wild oat", 8),
]

Give its Plant response rating, Wild oats value. Item: CC(C)N(C(=O)n1oc(=O)n(CC2CCCCO2)c1=O)c1ccccc1 (centres unmarked) [Compound 659]
9

Can you look up the measured Plant response rating, Wild oats of C=C(C)CCn1c(=O)on(C(=O)N(c2ccc(F)cc2)C(C)C)c1=O [Compound 199] for me?
7

Can you look up the measured Plant response rating, Wild oats of CC(C)N(C(=O)n1oc(=O)n(Cc2ccco2)c1=O)c1ccc(F)cc1F [Compound 208] for me?
3

Could you share which Plant response rating, Wild oats value was measured for CC(C)N(C(=O)n1oc(=O)n(CSC#N)c1=O)c1ccc(F)cc1 [Compound 618] ?
0

Look up Plant response rating, Wild oats for this compound: CCC(C)n1c(=O)on(C(=O)N(c2ccccc2)C(C)C)c1=O (centres unmarked) [Compound 611]
8
